molecular target: Rhesus PDE2A3 (Macaca mulatta); experiment: PDE2 fluorescence polarization (IMAP FP) assay, rhesus PDE2A3; format: biochemical, rhesus macaque; conditions: Lab B, read-out: Rhesus PDE2 Ki (nM) Lab B
Sequence (B3VTJ2 1-941): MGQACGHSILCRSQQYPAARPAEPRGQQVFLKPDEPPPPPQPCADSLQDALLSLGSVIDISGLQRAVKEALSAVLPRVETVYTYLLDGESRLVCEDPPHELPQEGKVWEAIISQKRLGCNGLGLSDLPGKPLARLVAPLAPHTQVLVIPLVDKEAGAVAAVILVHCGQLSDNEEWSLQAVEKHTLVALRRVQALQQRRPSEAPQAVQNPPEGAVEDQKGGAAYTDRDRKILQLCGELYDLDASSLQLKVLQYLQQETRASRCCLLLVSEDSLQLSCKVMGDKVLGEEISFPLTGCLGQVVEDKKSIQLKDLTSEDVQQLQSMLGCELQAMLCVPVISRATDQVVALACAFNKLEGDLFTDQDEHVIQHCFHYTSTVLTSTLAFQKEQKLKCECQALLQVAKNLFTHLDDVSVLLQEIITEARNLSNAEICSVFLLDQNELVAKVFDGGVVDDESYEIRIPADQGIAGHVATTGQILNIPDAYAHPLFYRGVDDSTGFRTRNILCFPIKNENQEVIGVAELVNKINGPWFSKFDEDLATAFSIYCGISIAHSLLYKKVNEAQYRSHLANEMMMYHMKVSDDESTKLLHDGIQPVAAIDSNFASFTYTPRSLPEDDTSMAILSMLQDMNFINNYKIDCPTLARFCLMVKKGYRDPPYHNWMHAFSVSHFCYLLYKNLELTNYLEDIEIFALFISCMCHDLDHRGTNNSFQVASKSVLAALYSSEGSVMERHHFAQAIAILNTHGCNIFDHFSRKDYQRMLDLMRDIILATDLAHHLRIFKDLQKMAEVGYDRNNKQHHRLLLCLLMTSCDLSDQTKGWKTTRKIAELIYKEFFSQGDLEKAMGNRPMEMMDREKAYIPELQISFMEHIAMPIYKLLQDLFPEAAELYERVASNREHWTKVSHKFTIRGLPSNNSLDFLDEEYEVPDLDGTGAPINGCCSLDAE
Please provide measured Ki for the entries that follow.
The answer is to be given in nM; state only the numeric part.

Check the records and state Ki for CN(C)c1nc2c(c(CO)nn2C(c2ccc(OC(F)F)c(F)c2)C2CC2)c(=O)[nH]1 (single isomer, unassigned) [Example 122] 0.37

Check the records and state Ki for CN(C)c1nc2c(c(CF)nn2C(c2ccc(C(F)(F)F)cc2F)C2CC2)c(=O)[nH]1 (single isomer, unassigned) [Example 203] 0.74

Check the records and state Ki for CC(C)C(c1ccc(C(F)(F)F)c(F)c1)n1nc(CF)c2c(=O)[nH]c(O)nc21 (single isomer, unassigned) [Example 56] 36

Check the records and state Ki for CC(C)C(c1ccc(C(F)F)c(F)c1)n1nc(CO)c2c(=O)[nH]c(N(C)C)nc21 (single isomer, unassigned) [Example 114] 0.71

Check the records and state Ki for CC(C)C(c1ccc(C(F)(F)F)c(F)c1)n1nc(CF)c2c(=O)[nH]c(O)nc21 (single isomer, unassigned) [Example 55] 1.3

Check the records and state Ki for CC(C)C(c1ccc(C(F)F)cc1)n1nc(CO)c2c(=O)[nH]c(N(C)C)nc21 (single isomer, unassigned) [Example 90] 2.3
